subject of test: Human IP6K1 (Homo sapiens, UniProt Q92551)
Construct: GST (N, cleaved yes); made in house; host or cells: C43 E. coli, pGEX-6P-2
Sequence (Q92551 whole entry): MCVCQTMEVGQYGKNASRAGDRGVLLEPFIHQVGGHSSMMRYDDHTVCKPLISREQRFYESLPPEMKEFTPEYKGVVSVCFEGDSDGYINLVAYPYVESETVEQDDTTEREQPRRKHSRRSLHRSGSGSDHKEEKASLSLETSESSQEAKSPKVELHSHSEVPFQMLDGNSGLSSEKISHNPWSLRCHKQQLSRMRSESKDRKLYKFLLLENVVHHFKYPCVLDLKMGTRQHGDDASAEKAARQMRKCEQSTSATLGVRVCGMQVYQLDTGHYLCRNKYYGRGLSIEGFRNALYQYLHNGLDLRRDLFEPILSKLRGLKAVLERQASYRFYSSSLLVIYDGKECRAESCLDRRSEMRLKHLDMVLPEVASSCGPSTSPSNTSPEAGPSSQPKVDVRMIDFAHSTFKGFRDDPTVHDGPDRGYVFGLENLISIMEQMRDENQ
method description: IP6K1 high-throughput screen of the Sigma LOPAC (ADP-Glo Max, single point);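 also: final compound concentration 10µM in 5% DMSO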
Type: biochemical
Counter-ions that a name gives are not always drawn.
List of Z-score values.

Below are worked cases with known answers.
C[N+](C)(C)CCO.[Br-] [Choline bromide]: 0.1897
NC(CCCCCP(=O)(O)O)C(=O)O (racemic) [(±)-2-Amino-7-phosphonoheptanoic acid]: 1.462
Cl.c1ccc([C@H]2CN3CCSC3=N2)cc1 [(-)-Tetramisole hydrochloride]: 0.1068
C=C(C)[C@H]1CN[C@H](C(=O)O)[C@H]1CC(=O)O: 0.01537
O=P1(N(CCCl)CCCl)NCCCO1 (stereo not shown) [Cyclophosphamide monohydrate]: 0.18
CN1CCc2ccccc2Cc2[nH]c3ccccc3c2CC1: -0.09233
Nc1nc2ccc(Cl)cc2c2nc(-c3ccco3)nn12: 1.105
CC[N+](CC)(CC)CC [Tetraethylammonium chloride]: 0.0762
C[C@H](CCC(=O)NCCS(=O)(=O)O)[C@H]1CC[C@H]2[C@@H]3[C@H](O)C[C@@H]4C[C@H](O)CC[C@]4(C)[C@H]3C[C@H](O)[C@]12C [Sodium Taurocholate]: 0.07713
Oc1ccc2c3c1O[C@H]1[C@@H](O)CC[C@@]4(O)[C@@H](C2)N(CC2CCC2)CC[C@]314 [Nalbuphine hydrochloride]: -0.08477

Qu. Record request: Z-score value, item Cl.Nc1c2c(nc3ccccc13)CCCC2
Ans. -1.409

Qu. Record request: Z-score value, item O=C(O)c1cc([N+](=O)[O-])ccc1NCCCc1ccccc1
Ans. -0.4084

Qu. Record request: Z-score value, item CNCC(O)c1ccc(O)c(O)c1.Cl (racemic) [(±)-Epinephrine hydrochloride]
Ans. -1.192

Qu. Record request: Z-score value, item Cc1cccc(C)c1N=C1NCCCS1 [Xylazine hydrochloride]
Ans. 0.1366
